log10 GI50 for assorted compounds
- Test system: HCT-15
experimental endpoint: log10 GI50 (log10 of the value in µM)

compound: CC1(C)OC[C@@H](/C=C\CCO[Si](c2ccccc2)(c2ccccc2)C(C)(C)C)N1C(=O)c1ccccc1
tested on: HCT-15
log10 GI50: 0.71
//
compound: O=C(c1ccccc1)c1ccc2[nH]c(-c3c(Cl)c(Cl)c(Cl)c(Cl)c3C(=O)N/N=C/c3cccc(Oc4ccccc4)c3)nc2c1
tested on: HCT-15
log10 GI50: 1.66
//
compound: COc1cccc(NC(=O)CC(=O)n2nc(-c3ccccc3)c(/N=N/c3ccc(Cl)cc3)c2-c2ccccc2)c1
tested on: HCT-15
log10 GI50: 1.06
//
compound: O=C(c1ccco1)C1CC(c2c(O)ccc3ccccc23)=NN1 (stereo not given)
tested on: HCT-15
log10 GI50: 1.28
//
compound: COC(=O)[C@@H](NC(=O)[C@H](N)Cc1ccc(N(CCCl)CCCl)cc1)C(C)C
tested on: HCT-15
log10 GI50: 1.26
//
compound: N=c1c2c(=S)n(-c3ccccc3)c(=S)n(-c3ccccc3)c2nc(SCCCN2CCN(c3cccc(Cl)c3)CC2)n1-c1ccccc1
tested on: HCT-15
log10 GI50: 1.77
//
compound: c1ccc2c(CNCCCCCCNCc3cccc4ccccc34)cccc2c1
tested on: HCT-15
log10 GI50: 0.83
//
compound: N#C/C=c1/c2ccccc2n2nc3ccccc3c12
tested on: HCT-15
log10 GI50: 1.64
//
compound: CC(C)=CC(=O)OC1C2C(C)=CC(O)C(O)C2(C)C2C3(O)OCC24C(CC(=O)OC14)C(C)C3O (stereo not given)
tested on: HCT-15
log10 GI50: -0.32
//
compound: O=C1C=CC(=NNc2ccccc2)C=CC1=O
tested on: HCT-15
log10 GI50: 0.77
//
compound: COc1ccc(C2CCc3c(cnc4nc(N)nc(N)c34)C2)cc1 (stereo not given)
tested on: HCT-15
log10 GI50: 0.71
//
compound: c1ccc(/C(=N/Nc2ccccn2)c2cccnn2)cc1
tested on: HCT-15
log10 GI50: -0.08
//
compound: Cc1nc(Nc2ccc([N+](=O)[O-])cc2)sc1C(=O)/C=C/c1ccc(N(C)C)cc1
tested on: HCT-15
log10 GI50: 1.65
//
compound: Oc1ccc2c(c1)CCc1c-2n(CCN2CCOCC2)c2ccc(O)cc12
tested on: HCT-15
log10 GI50: 1.56
//
compound: COc1c2c(c(OC)c3c1c(=O)c1ccccc1n3C)OCO2
tested on: HCT-15
log10 GI50: 1.42
//
compound: O=C(O)c1cc(O)c2c(c1)Cc1cccc(O)c1C2=O
tested on: HCT-15
log10 GI50: 1.24

====

- Test system: SK-OV-3
- assay: NCI tumour cell line growth inhibition, 48 h
Calls of active or inactive are those of the source. No stated cut-off is given here; in the data, active = GI50 up to about 1.1 µM and inactive = higher.
GI50 for assorted molecules

molecule: CCN(CC)CCNC(=O)c1cccc2nc3ccccc3nc12
GI50: > 49 µM (inactive)
--
molecule: COc1ccc(C(C)NNC(=O)c2ccncc2)c(OC)c1 (stereo not given)
GI50: > 100 µM (inactive)
--
molecule: CCOC(=O)NC(=O)c1cn(CC(=O)NCC(=O)NCC(=O)N2CCN(CCn3c(C)nc(C(N)=O)c3N)CC2)c(=O)[nH]c1=O
GI50: > 100 µM (inactive)
--
molecule: COc1cc2c(cc1O)NC(=S)[C@@H]1CCCN1C2=O
GI50: > 100 µM (inactive)
--
molecule: Cc1ccccc1NC(=O)CC(=O)n1nc(-c2ccccc2)c(/N=N/c2ccc([N+](=O)[O-])cc2)c1-c1ccccc1
GI50: 16.7 µM (inactive)
--
molecule: COc1ccc(C2=NN(C(=O)c3ccc(Cl)cc3)C(O)(c3cc(F)c(Cl)cc3Cl)C2)cc1OC (stereo not given)
GI50: > 100 µM (inactive)
--
molecule: Nc1ccc2c(c1)Oc1c(F)c(F)cc3c(=O)c(C(=O)O)cn-2c13
GI50: > 100 µM (inactive)
--
molecule: CCOP(=O)(/C=C\n1ccc(=O)[nH]c1=O)OCC
GI50: > 100 µM (inactive)
--
molecule: CC(CCC(=O)O)C(=O)O (stereo not given)
GI50: > 100 µM (inactive)
--
molecule: CC(O[Si](C)(C)C(C)(C)C)[C@H](NC(=O)OCC(Cl)(Cl)Cl)C(=O)O (stereo not given in full)
GI50: > 100 µM (inactive)

====

GI50 for assorted compounds
- Tested on: M14
- assay: NCI tumour cell line growth inhibition, 48 h
The source made the active and inactive calls. Rule as the data show it: active = GI50 up to about 1.1 µM and inactive = higher. Peptide text beside a SMILES is read from it. * marks the point of attachment. Cbz = O=C(OCc1ccccc1)*
experimental endpoint: GI50

compound: O=C1N/C(=N/N=C/c2cccs2)N/C1=C\c1ccco1
experimental endpoint: GI50
measured value: 8.57 µM (inactive)
--
compound: FC(F)(F)c1ccc2c(c1)nc(-c1ccccc1)n2CC1CCCN2CCCCC12 (stereo unspecified)
experimental endpoint: GI50
measured value: 17.1 µM (inactive)
--
compound: Cc1ccc(C(=C2Sc3ccccc3S2)C(=C2Sc3ccccc3S2)c2ccc(C)s2)s1
experimental endpoint: GI50
measured value: 76.2 µM (inactive)
--
compound: CC(=O)C1=CSC2[C@H](NC(=O)Cc3ccccc3)C(=O)N2C1C(=O)OC(c1ccccc1)c1ccccc1 (stereo partly specified)
experimental endpoint: GI50
measured value: > 100 µM (inactive)
--
compound: COP1(=O)CC2C(Cl)(Cl)C2(C)C1 (stereo unspecified)
experimental endpoint: GI50
measured value: > 100 µM (inactive)
--
compound: CN1CCC(CN2c3ccccc3Sc3ccccc32)CC1
experimental endpoint: GI50
measured value: 13 µM (inactive)
--
compound: CC(=O)N1c2ccccc2C2=NN=C(N(C)C)SC21 (stereo unspecified)
experimental endpoint: GI50
measured value: 1.84 µM (inactive)
--
compound: CC1(C)O[C@@H](CBr)C[C@H](C[C@H]2C[C@@H](O)C[C@@H](CCOCc3ccccc3)O2)O1
experimental endpoint: GI50
measured value: 23.5 µM (inactive)
--
compound: CCOC(=O)/C(C(=O)Nc1cccc(C(F)(F)F)c1)=C(/N)N1CCCC1
experimental endpoint: GI50
measured value: > 100 µM (inactive)
--
compound: O=C(O)CCC(NC(=O)OCc1ccccc1)C(=O)NC(Cc1c[nH]cn1)C(=O)O (stereo not drawn) (Cbz-Glu-His-OH; configuration not given here)
experimental endpoint: GI50
measured value: > 100 µM (inactive)
--
compound: CC1=NN(C(=O)c2ccccc2O)C(=O)/C1=C/c1cccc([N+](=O)[O-])c1
experimental endpoint: GI50
measured value: 2.37 µM (inactive)
--
compound: COC(=O)N1C2C(C[C@@]1(C)C(=O)OC)c1ccccc1N2S(=O)(=O)c1ccccc1 (stereo partly specified)
experimental endpoint: GI50
measured value: > 100 µM (inactive)
--
compound: CCCN(C(=O)c1ccccc1)C(C#N)c1ccc(C(C#N)N(CCC)C(=O)c2ccccc2)cc1 (stereo unspecified)
experimental endpoint: GI50
measured value: > 100 µM (inactive)
--
compound: C[Si](C)(C)OC1(C#N)c2ccccc2CCCC12CCCC2 (stereo unspecified)
experimental endpoint: GI50
measured value: 48.3 µM (inactive)
--
compound: c1ccc(-c2nc3ccccc3nc2SCc2cccnc2)cc1
experimental endpoint: GI50
measured value: > 100 µM (inactive)
--
compound: O=C1CCN2c3ccccc3[C@H]3Cc4cccc(c4[C@@H]2C3)CCO1
experimental endpoint: GI50
measured value: 19.4 µM (inactive)
--
compound: COC(=O)[C@H](Cc1c[nH]c2ccccc12)NP(=O)(OCCC#N)OCC1OC(n2cc(C)c(=O)[nH]c2=O)CC1N=[N+]=[N-] (stereo partly specified)
experimental endpoint: GI50
measured value: > 100 µM (inactive)
--
compound: CC(C)(C)C(=O)C(CC(=O)c1ccccc1)C(=O)C(C)(C)C
experimental endpoint: GI50
measured value: > 100 µM (inactive)
--
compound: CC[C@]1(Cc2ccc(OC)c(OC)c2)CN(S(=O)(=O)c2ccc(C)cc2)C[C@@H]1OC(C)=O
experimental endpoint: GI50
measured value: > 100 µM (inactive)
--
compound: CCN(CC)CCOc1ccc(N2Cc3cc(OC)c(OC)cc3C2=O)cc1
experimental endpoint: GI50
measured value: > 100 µM (inactive)
--
compound: NS(=O)(=O)c1ccc(/N=N/c2ccc(O)c(O)c2)cc1
experimental endpoint: GI50
measured value: 24.5 µM (inactive)
--
compound: COc1ccc2[nH]c3c(O)nncc3c2c1
experimental endpoint: GI50
measured value: > 100 µM (inactive)
--
compound: CC(C)=CCC[C@@H](C)/C=C/C=C(\C)C(=O)CC[C@@H]1CC[N@+]2(C)CCCC[C@H]12
experimental endpoint: GI50
measured value: > 100 µM (inactive)
--
compound: CCOP(=O)(/C=C\n1ccc(=O)[nH]c1=O)OCC
experimental endpoint: GI50
measured value: > 100 µM (inactive)
--
compound: Sc1nnc(COc2ccc(Cl)cc2)[nH]1
experimental endpoint: GI50
measured value: > 100 µM (inactive)
--
compound: N#CC(C#N)=C1C(=O)NC(N)=C1C#N
experimental endpoint: GI50
measured value: > 100 µM (inactive)
--
compound: S=c1[nH]c2ccc(Br)cc2c(=S)n1-c1ccccc1
experimental endpoint: GI50
measured value: 20.7 µM (inactive)
--
compound: CCN(CC)CCNC(=O)c1cccc2nc3ccccc3nc12
experimental endpoint: GI50
measured value: 18.5 µM (inactive)
--
compound: CC(C)=CCC/C(=C/CC/C(C)=C/CCc1ccoc1)C(=O)O
experimental endpoint: GI50
measured value: > 100 µM (inactive)
--
compound: O=[N+]([O-])c1ccc2c(c1)OCCOCCOc1ccc([N+](=O)[O-])cc1OCCOCCO2
experimental endpoint: GI50
measured value: > 100 µM (inactive)
--
compound: COc1cccc(NC(=O)CC(=O)n2nc(-c3ccccc3)c(/N=N/c3ccc(Cl)cc3)c2-c2ccccc2)c1
experimental endpoint: GI50
measured value: 15.2 µM (inactive)
--
compound: COc1ccc2c3c(n(Cc4ccccc4)c(=O)c2c1)-c1cc(OC)c(OC)cc1C3C (stereo unspecified)
experimental endpoint: GI50
measured value: 44 µM (inactive)
--
compound: CCc1ccc(Nc2cc(=O)[nH]c(=S)n2C)cc1
experimental endpoint: GI50
measured value: > 100 µM (inactive)
--
compound: COC(=O)c1ccccc1NC(=S)NN(C)C
experimental endpoint: GI50
measured value: > 100 µM (inactive)
--
compound: Cc1cc2c(cc1C)[n+]([O-])c(C(=O)/C=C/c1ccc(Cl)cc1)c(C)[n+]2[O-]
experimental endpoint: GI50
measured value: 23.3 µM (inactive)
--
compound: CC(=O)Nc1cc(C(=O)Nc2cc(C(=O)Nc3cc(C(=O)Nc4cc(C(=O)Nc5cc(C(=O)NCCC(=O)NCCCN(C)C)n(C)c5)n(C)c4)n(C)c3)n(C)c2)n(C)c1
experimental endpoint: GI50
measured value: > 100 µM (inactive)
--
compound: N#C/C=c1/c2ccccc2n2nc3ccccc3c12
experimental endpoint: GI50
measured value: 51.9 µM (inactive)
--
compound: COc1c2c(c(OC)c3c1c(=O)c1ccccc1n3C)OCO2
experimental endpoint: GI50
measured value: 9.51 µM (inactive)
--
compound: O=CCCn1[nH]c(=O)ccc1=O
experimental endpoint: GI50
measured value: > 100 µM (inactive)
--
compound: O=C(O)c1cc(O)c2c(c1)Cc1cccc(O)c1C2=O
experimental endpoint: GI50
measured value: 23.4 µM (inactive)
--
compound: Cc1c(Cl)cccc1NC(=O)C(=O)C1C(=O)NC(=O)NC1=O
experimental endpoint: GI50
measured value: > 100 µM (inactive)

FYI, the data here is from ChEMBL document CHEMBL1201862.
